# assaySystem: T1, human MAdCAM expressed on cells (human, UniProt Q13477 19-382)
# T1 construct: whole, on cells; also called MADCAM1
# T1 sequence (looked up): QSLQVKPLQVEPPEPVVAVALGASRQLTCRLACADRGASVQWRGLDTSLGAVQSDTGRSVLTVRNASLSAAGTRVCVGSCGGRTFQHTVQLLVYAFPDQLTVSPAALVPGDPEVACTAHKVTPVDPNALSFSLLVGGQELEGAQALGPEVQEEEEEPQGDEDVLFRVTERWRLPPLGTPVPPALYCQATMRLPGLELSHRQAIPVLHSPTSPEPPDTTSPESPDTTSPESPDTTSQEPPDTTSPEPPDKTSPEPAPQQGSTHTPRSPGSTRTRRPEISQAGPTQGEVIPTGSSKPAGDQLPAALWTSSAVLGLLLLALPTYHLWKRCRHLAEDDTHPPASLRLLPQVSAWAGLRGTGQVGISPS
# experimentSummary: cell binding
recordedEndpoint: binding result

MAdCAM Antibody Table 2 Clone 39 (antibody, human IgG1, V domains shown) VH: QVQLVQSGAEVKKPGASVKVSCKASGYTFTSYYMHWVRQAPGQGLEWMAWMNPNSGNTGYAQKFQGRVTMTRDTSTSTVYMELSSLRSEDTAVYYCARDYDFWSGSLGYWGQGTLVTVSS VL: DIQMTQSPSSLSASVGDRVTITCRASQGISNYLAWYQQKPGKAPKLLIYAASSLQSGVPSRFSGSGSGTDFTLTISSLQPEDFATYYCQQSYSTPWTFGQGTKVEIK    binds
MAdCAM Antibody Table 2 Clone 68 (antibody, human IgG1, V domains shown) VH: EVQLLESGGGLVQPGGSLRLSCAASGFTFGDYAMSWVRQAPGKGLEWVAVVSYDGTNKYYADSVKGRFTISRDNSKNTLYLQMNSLRAEDTAVYYCAKDICSSTSCYFDLWGRGTLVTVSS VL: DIQMTQSPSSLSASVGDRVTITCRASQNINNYVNWYQQKPGKAPKLLIYDASNLETGVPSRFSGSGSGTDFTLTISSLQPEDFATYYCQQANSFPPTFGQGTRLEIK    binds
MAdCAM Antibody Table 2 Clone 18 (antibody, human IgG1, V domains shown) VH: QVQLVQSGAEVKKPGSSVKVSCKASGYTFTNYYMHWVRQAPGQGLEWMGGIIPIVDRVKYAQKFQGRVTITADESTSTAYMELSSLRSEDTAVYYCAKGRYTVNYYYGMDVWGQGTTVTVSS VL: DIQMTQSPSSLSASVGDRVTITCQANQDISNYLNWYQQKPGKAPKLLIYRASKLEAGVPSRFSGSGSGTDFTLTISSLQPEDFATYYCQQSSEIPYSFGQGTKLEIK    binds

From: patent US20210206856A1
